Please go through the items and note down their Kd.
TARGET_OR_TEST_SYSTEM: Carcinoembryonic antigen (CEA) (Homo sapiens, UniProt P06731 P06731:35-685)
Sequence (P06731 35-685, one chain of several): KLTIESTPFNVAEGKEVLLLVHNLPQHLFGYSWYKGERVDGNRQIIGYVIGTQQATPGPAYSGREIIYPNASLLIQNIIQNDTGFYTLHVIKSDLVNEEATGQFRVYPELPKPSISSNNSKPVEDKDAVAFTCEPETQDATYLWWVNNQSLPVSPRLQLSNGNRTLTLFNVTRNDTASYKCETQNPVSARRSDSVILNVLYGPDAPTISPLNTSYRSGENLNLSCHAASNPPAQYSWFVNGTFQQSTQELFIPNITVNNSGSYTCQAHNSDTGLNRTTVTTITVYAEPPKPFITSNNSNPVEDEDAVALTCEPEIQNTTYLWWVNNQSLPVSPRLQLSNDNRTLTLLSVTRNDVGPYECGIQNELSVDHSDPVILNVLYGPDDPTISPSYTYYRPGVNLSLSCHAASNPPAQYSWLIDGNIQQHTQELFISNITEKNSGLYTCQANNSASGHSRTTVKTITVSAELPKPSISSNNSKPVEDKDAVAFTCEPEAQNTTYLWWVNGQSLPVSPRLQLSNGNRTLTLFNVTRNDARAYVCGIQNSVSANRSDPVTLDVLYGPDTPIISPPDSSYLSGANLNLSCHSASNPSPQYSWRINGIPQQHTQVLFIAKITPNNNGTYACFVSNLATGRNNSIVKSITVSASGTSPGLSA
ASSAY_NOTES: FP; physiological binding buffer
ASSAY_SETUP: tags: Calbiochem; label: 5'-fluorescein
Put your answer as a value accompanied by its unit after it.

Prompt: // returns reported Kd for input ATACCAGCTTATTCAATTGGGGGAGGGGGCGACGCGATACCC (ssDNA) [clone22bases1-42]
Response: 5 nM

Prompt: // returns reported Kd for input ATACCAGCTTATTCAATT (ssDNA) [5' primer]
Response: 5 nM

The values you see were collected from patent US20100254901.
